target: Histamine H3 receptor (Homo sapiens); test: Displacement of [125I]iodoproxyfan from histamine H3 receptor (unknown origin) expressed in CHO cells; format: cell-based
Sequence (Q9Y5N1 whole entry): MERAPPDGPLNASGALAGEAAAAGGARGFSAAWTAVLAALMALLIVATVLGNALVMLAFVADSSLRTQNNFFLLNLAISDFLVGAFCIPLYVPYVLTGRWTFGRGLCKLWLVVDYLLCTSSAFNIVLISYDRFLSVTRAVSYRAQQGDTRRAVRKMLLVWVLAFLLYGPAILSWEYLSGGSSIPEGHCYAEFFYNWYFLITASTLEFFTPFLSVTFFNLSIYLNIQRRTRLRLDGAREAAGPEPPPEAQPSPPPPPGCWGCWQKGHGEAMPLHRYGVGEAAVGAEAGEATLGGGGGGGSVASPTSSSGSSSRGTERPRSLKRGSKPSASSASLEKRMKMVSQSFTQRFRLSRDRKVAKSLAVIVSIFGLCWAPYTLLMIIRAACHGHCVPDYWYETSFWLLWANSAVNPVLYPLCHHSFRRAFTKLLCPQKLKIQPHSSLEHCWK
Reported endpoint: Ki (nM)

Use these answered entries as a reference point.
- c1cc(-c2ccc(OCCCN3CCCCC3)cc2)ccc1OCCCCN1CCCCC1: 0.13
- c1ccc(-c2ccc(OCCCN3CCCCC3)cc2)c(CN2CCCCC2)c1: 0.045
- c1cc(OCCCN2CCCCC2)ccc1CCCc1ccc(OCCCN2CCCCC2)cc1: 0.9
- c1cc(OCCCN2CCCCC2)ccc1Cc1ccc(OCCCN2CCCCC2)cc1: 0.51
- C(=C\c1ccc(-c2ccc(OCCCN3CCCCC3)cc2)cc1)/CN1CCCCC1: 0.655
- CN1CCN(c2ccc(-c3ccc(OCCCN4CCCCC4)cc3)cc2)CC1: 0.23
- c1cc(-c2ccc(OCCN3CCCCC3)cc2)ccc1OCCCN1CCCCC1: 0.49
- C(#Cc1ccc(-c2ccc(OCCCN3CCCCC3)cc2)cc1)CN1CCCCC1: 0.67
- O=C(CCc1ccc(OCCCN2CCCCC2)cc1)c1ccc(OCCCN2CCCCC2)cc1: 0.64
- c1cc(-c2ccc(OCCCN3CCCCC3)cc2)ccc1CCCN1CCCCC1: 0.17

(1) C(=C/c1ccc(-c2ccc(OCCCN3CCCCC3)cc2)cc1)/CN1CCCCC1
(2) c1cc(OCCCN2CCCCC2)ccc1CCc1ccc(OCCCN2CCCCC2)cc1
Exercise: Rank 1 against 2 by their Ki values and give the higher one. Give the label of your selection.
Solution: 2
